# Experimental System: Retinoic acid receptor RXR-alpha (Homo sapiens)
# Protocol Details: ATG_RXRa_TRANS: Attagene TRANS-FACTORIAL HepG2 Assay for human Retinoid X Receptor alpha (RXRa) (AID 2283012)
# Experimental: ATG_TRANS is a cell-based, multiplexed-readout assay that uses HepG2, a human liver cell line, with measurements taken at 24 hours after chemical dosing in a 24-well plate.ATG_RXRa_TRANS is one of 30 assay component(s) measured or calculated from the ATG_TRANS assay. […] This assay endpoint, ATG_RXRa_TRANS, was analyzed in the positive analysis fitting direction relative to DMSO as the negative control and baseline of activity. […]
Inconclusive results are not listed. The source made the active and inactive calls. The calls were made as follows: active = hit-call score of the fitted dose curve at least 0.9, where 1 is the maximum; inconclusive = response in the unintended direction; inactive = score below 0.9.
Write down one outcome, taken from 1.0 = active, 0.0 = inactive

INSERT INTO assay_data (compound, experimental_system, label_value) VALUES
  ('OC12N=C(c3ccccc3)SC1Cc1cc(Cl)ccc12 (stereo unspecified)', 'Retinoic acid receptor RXR-alpha (Homo sapiens)', 0.0),
  ('CN(C[C@@H](CC[N+]12CCC(C3CCCCC3)(CC1)CC2)c1ccc(Cl)c(Cl)c1)C(=O)c1cc(C(F)(F)F)cc(C(F)(F)F)c1', 'Retinoic acid receptor RXR-alpha (Homo sapiens)', 0.0),
  ('C[C@]12CC[C@@H]3c4ccc(O)cc4CC[C@H]3[C@@H]1CC[C@H]2O', 'Retinoic acid receptor RXR-alpha (Homo sapiens)', 0.0),
  ('CC(O)CC(C)(C)O (stereo unspecified)', 'Retinoic acid receptor RXR-alpha (Homo sapiens)', 0.0),
  ('CCN(Cc1cccc(S(=O)(=O)O)c1)c1ccc(C(=C2C=CC(=[N+](CC)Cc3cccc(S(=O)(=O)O)c3)C=C2)c2ccccc2S(=O)(=O)[O-])cc1', 'Retinoic acid receptor RXR-alpha (Homo sapiens)', 0.0);

Kindly consider the entry below.
Kindly provide the recorded test outcome for the following compound: `O=CCCCC=O` 0.0

###

# Protocol Details: CCTE_Harrill_HTTr_Apoptosis_MCF7: CCTE's 6-hour Apoptosis Assessment for the High-Throughput Transcriptomics (HTTr) Platform, in MCF-7 cells cultured in DMEM + 10% fetal bovine serum, Harrill Lab (AID 2284011)
The source made the active and inactive calls. The calls were made as follows: active = hit-call score of the fitted dose curve at least 0.9, where 1 is the maximum; inactive = score below 0.9.
Write down one outcome, taken from active, inactive

Some solved entries appear below for comparison.
INSERT INTO results (molecule, label_value) VALUES
  ('O=C1c2ccccc2C(=O)N1CCc1noc(-c2ccc(CN3CCCCCC3)s2)n1', 'inactive'),
  ('O=C(O)Cn1c(=O)n(Cc2ccc(Br)cc2F)c(=O)c2ccc(Cl)cc21', 'inactive'),
  ('c1ccc(C[n+]2cccc3ccccc32)cc1', 'inactive'),
  ('CCCCCCCCOc1ccc(C(=O)c2ccccc2)c(O)c1', 'inactive'),
  ('CCCCCCCCCC(=O)O', 'inactive');

Kindly consider the entry below.
Kindly provide the recorded test outcome for the following molecule: `COc1cccc([C@H](O)C2CCN(CCc3ccc(F)cc3)CC2)c1OC` inactive

###

# Experimental System: Tyrosine-protein phosphatase non-receptor type 11 (Homo sapiens) (UniProt Q06124)
# Sequence (Q06124 whole entry, looked up): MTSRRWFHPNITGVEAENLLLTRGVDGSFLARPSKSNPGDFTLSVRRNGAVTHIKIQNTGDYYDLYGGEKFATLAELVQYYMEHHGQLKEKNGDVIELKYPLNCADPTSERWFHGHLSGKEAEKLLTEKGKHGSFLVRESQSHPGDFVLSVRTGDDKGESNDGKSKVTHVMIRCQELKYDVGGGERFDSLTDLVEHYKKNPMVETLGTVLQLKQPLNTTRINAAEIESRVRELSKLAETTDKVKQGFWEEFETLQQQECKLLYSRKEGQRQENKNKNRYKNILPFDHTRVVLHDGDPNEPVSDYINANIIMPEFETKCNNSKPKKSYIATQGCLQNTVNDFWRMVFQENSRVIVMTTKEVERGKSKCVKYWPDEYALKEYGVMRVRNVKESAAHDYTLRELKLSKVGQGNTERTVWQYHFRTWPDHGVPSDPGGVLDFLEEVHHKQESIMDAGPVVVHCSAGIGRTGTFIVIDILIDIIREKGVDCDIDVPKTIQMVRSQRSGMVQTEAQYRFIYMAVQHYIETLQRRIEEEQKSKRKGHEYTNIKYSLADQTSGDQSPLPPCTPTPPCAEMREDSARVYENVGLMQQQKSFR
# Protocol Details: NVS_ENZ_hPTPN11: NovaScreen (NVS) Enzymatic Assay for human Protein Tyrosine Phosphatase Non-receptor Type 11 (PTPN11) (AID 2283202)
Inconclusive results are not listed. Active and inactive are the calls of the source. The calls were made as follows: active = hit-call score of the fitted dose curve at least 0.9, where 1 is the maximum; inconclusive = response in the unintended direction; inactive = score below 0.9.
Measured Parameter: outcome

INSERT INTO assay_data (smiles_string, experimental_system, measured_parameter, meas_value) VALUES
  ('O=C1CCC(C2CCCCC2)CC1', 'Tyrosine-protein phosphatase non-receptor type 11 (Homo sapiens) (UniProt Q06124)', 'outcome', 'inactive'),
  ('c1ccc2ccccc2c1', 'Tyrosine-protein phosphatase non-receptor type 11 (Homo sapiens) (UniProt Q06124)', 'outcome', 'inactive'),
  ('CC/C(=C(/CC)c1ccc(O)cc1)c1ccc(O)cc1', 'Tyrosine-protein phosphatase non-receptor type 11 (Homo sapiens) (UniProt Q06124)', 'outcome', 'inactive'),
  ('CC(C)(C)c1csc(-c2cc3cc(OCc4ccccc4CC(=O)O)ccc3o2)n1', 'Tyrosine-protein phosphatase non-receptor type 11 (Homo sapiens) (UniProt Q06124)', 'outcome', 'inactive');
